Counter-ions that a name gives are not always drawn.
Endpoint Name: melting point

CN(CCc1ccccc1)CCc1ccc(Nc2ncc3c(n2)-c2ccccc2[C@H](c2ccc(Cl)c(Cl)c2)C3)cc1 (as salt: hydrochloride) :: 170 to 175 °C
COCCNCCc1ccc(Nc2ncc3c(n2)-c2ccccc2[C@H](c2ccccc2F)C3)cc1 (as salt: hydrochloride) :: 198 to 201 °C
Fc1ccc(C2Cc3cnc(Nc4ccc(CCN5CCCCC5)cc4)nc3-c3ccccc32)cc1F (centres unmarked) (as salt: hydrochloride) :: 214 to 218 °C
Fc1ccc(C2Cc3cnc(NCCCN4CCCCC4)nc3-c3ccccc32)cc1 (centres unmarked) :: 60 to 62 °C
COCCN1CCN(CCc2ccc(Nc3ncc4c(n3)-c3ccccc3[C@H](c3ccc(F)cc3)C4)cc2)CC1 :: 195 to 198 °C
CN1CCN(CCc2cccc(Nc3ncc4c(n3)-c3ccccc3[C@H](c3ccccc3F)C4)c2)CC1 (as salt: hydrochloride) :: 182 to 186 °C
CN(C)CCN(CCc1ccc(Nc2ncc3c(n2)-c2ccccc2C(c2cccc(Br)c2)C3)cc1)Cc1ccccc1 (centres unmarked) :: 68 to 70 °C
Brc1cccc(C2Cc3cnc(Nc4ccc(CCNc5ccccc5)cc4)nc3-c3ccccc32)c1 (centres unmarked) :: 92 to 94 °C
CCCCN(C)CCc1ccc(Nc2ncc3c(n2)-c2ccccc2[C@H](c2ccc(F)c(F)c2)C3)cc1 (as salt: hydrochloride) [Example 96] :: 145 to 150 °C
CCN(CCc1ccc(Nc2ncc3c(n2)-c2ccccc2C(c2cccc(Br)c2)C3)cc1)Cc1ccncc1 (centres unmarked) :: 88 to 90 °C
CCCCN(C)CCc1ccc(Nc2ncc3c(n2)-c2ccccc2C(c2cccc(Br)c2)C3)cc1 (centres unmarked) :: 66 to 68 °C
CC(C)(C)OC(=O)N1CCN(CCc2ccc(Nc3ncc4c(n3)-c3ccccc3C(c3ccccc3C(F)(F)F)C4)cc2)CC1 (centres unmarked) :: 234 to 235 °C
COCCN1CCN(CCc2cccc(Nc3ncc4c(n3)-c3ccccc3[C@H](c3ccc(Cl)c(Cl)c3)C4)c2)CC1 (as salt: hydrochloride) :: 220 to 225 °C
CN(CCc1ccc(Nc2ncc3c(n2)-c2ccccc2C(c2cccc(Br)c2)C3)cc1)C1CCCCC1 (centres unmarked) :: 215 to 217 °C

* * *

Counter-ions that a name gives are not always drawn.
Below is a list of entries, each paired with its recorded melting point value.
Endpoint Name: melting point

Fc1ccccc1[C@@H]1Cc2cnc(Nc3cccc(CCN4CCNCC4)c3)nc2-c2ccccc21 [Example 163] :: 165 to 167 °C
COCCN1CCN(CCc2ccc(Nc3ncc4c(n3)-c3ccccc3C(c3ccc(F)c(F)c3)C4)cc2)CC1 (stereo not shown) [Example 59] :: 267 to 270 °C
Nc1cc2c(cn1)CC(c1ccc(Cl)cc1Cl)c1ccccc1-2 (stereo not shown) [Example 156] :: 189 to 193 °C
CCCCN(C)CCc1ccc(Nc2ncc3c(n2)-c2ccccc2[C@H](c2ccc(F)c(F)c2)C3)cc1 (as salt: hydrochloride) [Example 89] :: 130 to 132 °C

* * *

Target Desc: FGFR2 kinase (Homo sapiens, UniProt P21802, N549H)
Construct: purchased Millipore 14-742
Sequence (P21802 456-770 N549H limits assumed): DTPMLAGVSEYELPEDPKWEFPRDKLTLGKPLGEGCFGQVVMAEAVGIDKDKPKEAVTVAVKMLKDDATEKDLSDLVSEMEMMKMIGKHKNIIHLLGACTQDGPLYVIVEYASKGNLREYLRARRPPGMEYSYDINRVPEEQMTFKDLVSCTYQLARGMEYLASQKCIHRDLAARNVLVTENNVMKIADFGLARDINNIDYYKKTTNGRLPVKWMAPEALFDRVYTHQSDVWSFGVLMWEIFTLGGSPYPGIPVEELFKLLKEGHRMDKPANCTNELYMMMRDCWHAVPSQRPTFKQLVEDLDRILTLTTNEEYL
Test: fluorescent ELISA FGFR2 kinase assay (biochemical)
Particulars: FGFR2 (N549H); read-out: Biochemical data (IC50-μM) FGFR2 (N549H)
Structures can show the parent of a compound that is named as a salt.
A collection of compounds and their measured IC50
Endpoint Name: IC50 (µM)

Fc1ccc([C@@H]2Cc3cnc(Nc4ccc(CCN5CCCCC5)cc4)nc3-c3ccccc32)cc1 :: 0.177
CN(CCc1ccc(Nc2ncc3c(n2)-c2ccccc2[C@H](c2ccccc2F)C3)cc1)C1CCCCC1 :: 0.24
COCCN1CCN(CCc2ccc(Nc3ncc4c(n3)-c3ccccc3[C@H](c3cccc(Br)c3)C4)cc2)CC1 [Example 77, hydrochloride] :: 0.118
COCCNCCc1ccc(Nc2ncc3c(n2)-c2ccccc2[C@H](c2ccccc2F)C3)cc1 [Example 94, hydrochloride salt] :: 0.00999
COCCN1CCN(CCc2ccc(Nc3ncc4c(n3)-c3ccccc3[C@H](c3ccc(Cl)c(Cl)c3)C4)cc2)CC1 [Example 115, hydrochloride] :: 0.211
CCCCN(C)CCc1ccc(Nc2ncc3c(n2)-c2ccccc2[C@@H](c2ccc(Br)cc2)C3)cc1 [Example 107, hydrochloride salt] :: 0.423
COCCN1CCN(CCc2ccc(Nc3ncc4c(n3)-c3ccccc3[C@H](c3ccccc3F)C4)cc2)CC1 [Example 66, hydrochloride] :: 0.014

* * *

Structures can show the parent of a compound that is named as a salt.
Reported values of melting point for individual entries
Endpoint Name: melting point

NCCc1ccc(Nc2ncc3c(n2)-c2ccccc2C(c2cccc(Br)c2)C3)cc1 (stereo not shown) [Example 34] :: 115 to 117 °C
Clc1ccc([C@H]2Cc3cnc(Nc4ccc(CCN5CCOCC5)cc4)nc3-c3ccccc32)cc1Cl [Example 51] :: 166 to 167 °C
CN1CCN(CCc2ccc(Nc3ncc4c(n3)-c3ccccc3C(c3cccc(Br)c3)C4)cc2)CC1 (stereo not shown) [Example 28] :: 100 to 102 °C
CC(C)c1ccc2c(c1)C(c1ccc(Cl)c(Cl)c1)Cc1cnc(N)nc1-2 (stereo not shown) [Example 20] :: 174 to 176 °C
CN(CCc1ccc(Nc2ncc3c(n2)-c2ccccc2[C@H](c2ccccc2F)C3)cc1)C1CCCCC1 (as salt: HCl) [Example 95] :: 158 to 164 °C
CN1CCN(CCc2ccc(Nc3ncc4c(n3)-c3ccccc3[C@H](c3ccc(Cl)c(Cl)c3)C4)cc2)CC1 (as salt: hydrochloride) [Example 114] :: 236 to 238 °C
Brc1cccc(C2Cc3cnc(Nc4ccc(CCN5CCN(c6ccccc6)CC5)cc4)nc3-c3ccccc32)c1 (stereo not shown) [Example 43] :: 113 to 115 °C

* * *

// IC50 lookup, one value per entry
Test system: RT4
Test: MTS cell kill assay, RT4
Format: cell-based
Particulars: Homo sapiens, RT-4, RT4
Where a name gives a salt, the structure may show the parent alone.
Endpoint Name: IC50 (µM)

CN1CCN(CCc2cccc(Nc3ncc4c(n3)-c3ccccc3[C@H](c3ccccc3F)C4)c2)CC1 [Example 161, hydrochloride] :: 1.47
CN1CCN(CCc2cc(Nc3ncc4c(n3)-c3ccccc3[C@H](c3ccccc3F)C4)ccc2F)CC1 [Example 174, hydrochloride salt] :: 3.54
COCCN1CCN(CCc2cc(Nc3ncc4c(n3)-c3ccccc3[C@H](c3ccccc3F)C4)ccc2F)CC1 [Example 175, hydrochloride salt] :: 2.97
COCCNCc1cccc(Nc2ncc3c(n2)-c2ccccc2[C@H](c2ccccc2F)C3)c1 [Example 178, hydrochloride] :: 4.28
Fc1ccccc1[C@@H]1Cc2cnc(Nc3cccc(CCN4CCNCC4)c3)nc2-c2ccccc21 [Example 163] :: 1.38
COCCN1CCN(CCc2cccc(Nc3ncc4c(n3)-c3ccccc3[C@@H](c3ccccc3F)C4)c2)CC1 [Example 164] :: 2.97
COCCN1CCN(CCc2ccc(Nc3ncc4c(n3)-c3ccccc3[C@H](c3ccccc3F)C4)cc2)CC1 [Example 66, hydrochloride] :: 1.55

* * *

Listing: melting point of selected molecules
Where a name gives a salt, the structure may show the parent alone.
Endpoint Name: melting point

CN(C)CCCNc1ncc2c(n1)-c1ccccc1C(c1ccc(Cl)c(Cl)c1)C2 (stereo not drawn) :: 110 to 114 °C
Clc1ccc([C@H]2Cc3cnc(Nc4ccc(CCN5CCCCC5)cc4)nc3-c3ccccc32)cc1Cl :: 157 to 158 °C
Nc1ncc2c(n1)-c1ccccc1[C@H](c1ccccc1F)C2 (as salt: hydrochloride) :: 154 to 155 °C
CC(C)(C)OC(=O)N1CCC(Nc2ncc3c(n2)-c2ccccc2C(c2ccc(Cl)c(Cl)c2)C3)CC1 (stereo not drawn) :: 94 to 96 °C
COCCN1CCN(CCc2ccc(Nc3ncc4c(n3)-c3ccccc3[C@H](c3ccccc3F)C4)cc2)CC1 (as salt: hydrochloride) :: 212 to 216 °C
COCCNCCc1ccc(Nc2ncc3c(n2)-c2ccccc2C(c2ccccc2C(F)(F)F)C3)cc1 (stereo not drawn) :: 61 to 62 °C
OCCc1ccccc1Nc1ncc2c(n1)-c1ccccc1[C@H](c1ccccc1F)C2 :: 162 to 163 °C
CCCCN(C)CCc1ccc(Nc2ncc3c(n2)-c2ccccc2[C@H](c2ccc(Br)cc2)C3)cc1 (as salt: hydrochloride) :: 170 to 175 °C
Nc1ncc2c(n1)-c1ccccc1[C@@H](c1ccc(Cl)c(Cl)c1)C2 :: 159 to 160 °C
COCCN1CCN(CCc2cccc(Nc3ncc4c(n3)-c3ccccc3[C@@H](c3ccccc3F)C4)c2)CC1 (as salt: hydrochloride) :: 148 to 150 °C
COCCNCCc1cc(Nc2ncc3c(n2)-c2ccccc2[C@H](c2ccccc2F)C3)ccc1F (as salt: hydrochloride) :: 131 to 132 °C
Clc1ccc(C2Cc3cnc(Nc4ccc(CCN5CCOCC5)cc4)nc3-c3ccccc32)cc1Cl (stereo not drawn) :: 180 to 181 °C
COCCN1CCN(CCc2ccc(Nc3ncc4c(n3)-c3ccccc3C(c3ccccc3)C4)cc2)CC1 (stereo not drawn) :: 52 to 54 °C
COCCN1CCN(CCc2ccc(Nc3ncc4c(n3)-c3ccccc3[C@H](c3ccc(Cl)c(Cl)c3)C4)cc2)CC1 (as salt: hydrochloride) :: 248 to 250 °C
CS(=O)(=O)OCCc1cc(Nc2ncc3c(n2)-c2ccccc2[C@H](c2ccccc2F)C3)ccc1F :: 99 to 100 °C
